Provenance of the data: patent US5006540A

test system: spiral strips of the arteria pulmonalis of the guinea pig; test: Relaxing action on K+-depolarized, CaCl2-contracted spiral strips of guinea pig arteria pulmonalis (modified method of Godfraind and Kaba and of Schumann et al.); settings: Cavia porcellus; depolarized with 40 mmol/l potassium in calcium-free Tyrode solution; contraction by 0.5 mmol/l CaCl2; cumulative addition; mean value of 4 to 6 strips of vessel; read-out: IC50: concentration of test substance which inhibits the contraction by 50%
Where a name gives a salt, the structure may show the parent alone.
readout_label: IC50 (nM)
Answers are plain numbers, in nM.

compound: CCN[n+]1cc(=N)o[n-]1 [Example 2, 3-Ethylamino-sydnonimine hydrochloride]
observed_measurement: 2000

I would be grateful if you could provide IC50 for each of the following entries.
1. N=c1c[n+](NC2CCCCC2)[n-]o1 [Example 4e, hydrochloride]
2. N=c1c[n+](NC2CCCCC2O)[n-]o1 (centres unmarked) [Example 5b, hydrochloride]

Result:
[2000, 1000]

Query: // fetch spiral strips of the arteria pulmonalis of the guinea pig IC50 for N=c1c[n+](NCCO)[n-]o1 [Example 1a, hydrochloride]
Result: 2000
